Recorded measurements of melting point, one per entry
measurement.type: melting point

molecule="Cc1c(C)c2c(c(C)c1N)CC(C)(CN1CCCCC1)O2 (stereo not given)" measurement_type="melting point" test_value="60 to 61 °C"
molecule="CCOC(=O)C1=C(C)NC(c2csc(Cl)n2)=NC1c1ccc(F)cc1Cl (stereo not given)" measurement_type="melting point" test_value="141 to 143 °C"
molecule=CCOc1ccc2c(c1)n(C1CCOCC1)c(=O)n2S(=O)(=O)c1ccc(C(=O)OC)cc1OC measurement_type="melting point" test_value="165 °C"
molecule=N#Cc1c(Cl)cnc2cc(I)sc12 measurement_type="melting point" test_value="209 to 211 °C"
molecule=Cc1nc(Sc2cccc(C(F)(F)F)n2)sc1CC(=O)O measurement_type="melting point" test_value="162 to 164 °C"
molecule=CCCCCCCCCCS(=O)(=O)Oc1c(I)cc(I)cc1I measurement_type="melting point" test_value="71 to 72 °C"
molecule=COc1cc2c(cc1NN)oc1ccccc12 measurement_type="melting point" test_value="113 to 115 °C"
molecule=O=c1c2cc(Oc3ccc(Cl)cc3)ccc2ccn1Cc1cccnc1 measurement_type="melting point" test_value="116 °C"
molecule=CCC(=Cc1cccnc1)C(=O)NCCCCN1CCN(C(c2ccccc2)c2ccccc2)CC1 measurement_type="melting point" test_value="137 to 141 °C"
molecule=CCOC(=O)c1ccc(CNC(N)=O)cc1 measurement_type="melting point" test_value="173 to 175 °C"
molecule=Cc1ccc(-c2ncn(-c3ccc(C(F)(F)C(F)(F)C(F)(F)F)cc3)n2)cc1 measurement_type="melting point" test_value="140 to 143 °C"
molecule=O=C(Nc1ccc(-n2nc(C(F)(F)F)cc2C(F)(F)F)cc1)c1ccc2c(c1)OCO2 measurement_type="melting point" test_value="222 to 224 °C"
molecule=Cc1ccc2cccc(OCc3c(Cl)ccc(OCCN)c3Cl)c2n1 measurement_type="melting point" test_value="123 to 125 °C"
molecule="OC(CNc1c(Br)cnc2ccccc12)c1ccccc1 (stereo not given)" measurement_type="melting point" test_value="131 to 132 °C"
molecule=Cc1ccc(C(=O)Nc2ccc(CN(C)C)c(C(F)(F)F)c2)cc1-c1ccc2cnncc2c1 measurement_type="melting point" test_value="156 to 157 °C"
molecule=CC(C)COC(=O)Nc1cc(F)c(C2=CCSCC2)c(F)c1 measurement_type="melting point" test_value="136 to 137 °C"
molecule=CC1(C)CCC(C)(C)c2cc(-c3cc(-c4ccc(C(=O)O)cc4)ccc3OCCCCCCCO)ccc21 measurement_type="melting point" test_value="168 to 172 °C"
molecule=O=C1NCc2c(Oc3ccccc3)cccc2N1Cc1ccccc1 measurement_type="melting point" test_value="171 to 173 °C"
molecule=Cc1nnc2n1-c1ccc(C#CCn3ncc4ccccc43)cc1C(c1ccccc1F)=NC2 measurement_type="melting point" test_value="148 to 151 °C"
molecule=O=c1ccnc(NCCCN(Cc2cccc(Cl)c2)c2ccccn2)[nH]1 measurement_type="melting point" test_value="74 to 78 °C"

----------
measurement.type: melting point

molecule=CCOC(=O)c1cnn(-c2nc(-c3cccc(C(F)(F)F)c3)cs2)c1C measurement_type="melting point" test_value="138 °C"
molecule=CCOC(=O)CC[C@H](NC(=O)c1ccc(I)cc1)C(=O)OCC measurement_type="melting point" test_value="105 to 106 °C"
molecule="CS(=O)CCNC(=O)c1cccc(-c2ccc3c(c2)C(Oc2ccc(Cl)cc2Cl)CC3)c1 (stereo not given)" measurement_type="melting point" test_value="149 to 150 °C"
molecule=CCn1ncnc1COc1nn2c(-c3ccccc3F)nncc2c1C(C)(C)CC measurement_type="melting point" test_value="89 to 92 °C"
molecule=COCCOCN1C(C)=C(C(=O)O)[C@@H](c2cccc([N+](=O)[O-])c2)C(C(=O)OC)=C1C measurement_type="melting point" test_value="124 °C"
molecule="COc1ccc(N2CCN(c3c(C)c(C)c4c(c3C)C(C3CCCCC3)C(C)(C)O4)CC2)cc1 (stereo not given)" measurement_type="melting point" test_value="119 to 121 °C"
molecule=Cc1nc[nH]c(=O)c1Cc1ccccc1 measurement_type="melting point" test_value="140 to 142 °C"
molecule=CCOC(=O)c1cc(CC)c2ccc(C(C)C)ccc1-2 measurement_type="melting point" test_value="48 to 49 °C"
molecule=Cc1nccc2[nH]c(=O)c(N)cc12 measurement_type="melting point" test_value="283 to 285 °C"
molecule=CCC(=O)Nc1c(C(=O)c2cc(Cl)ccc2NC(C)=O)[nH]c2cc(Cl)ccc12 measurement_type="melting point" test_value="264 to 266 °C"

----------
measurement.type: melting point

compound=Cc1oc(-c2ccccc2)nc1CCOc1ccc(COc2ncccc2CC(=O)O)cc1 test_value="134 to 135 °C"
compound="c1ccc2c(c1)CC1(c3c[nH]cn3)CCCC21 (centres undefined)" test_value="171 to 174 °C"
compound="NC(=O)c1ccc(-c2ccc(C(CC3CCOCC3)c3ccc(S(=O)(=O)C4CC4)cc3)[nH]2)nc1 (centres undefined)" test_value="136 to 138 °C"
compound=CCOC(=O)N(NC(N)=O)c1ccc(CC[Si](OCC)(OCC)OCC)cc1 test_value="123 to 124 °C"
compound="Nc1nc2ccccc2c2c1nc1n2C(COCc2ccc(F)cc2)COC1 (centres undefined)" test_value="134 to 137 °C"
compound=CCCC(=O)N(Cc1ccc(Cl)cc1Cl)c1c(NC(C)(C)CC)c(=O)c1=O test_value="112 to 117 °C"
compound=CSc1nc(-c2cc(N)ccc2C)c2c(n1)N(c1c(F)cccc1F)C(=O)NC2 test_value="122 to 125 °C"
compound=COc1cc2c(cc1Nc1ncc(C(F)(F)F)c(Nc3ccc(N4CCOCC4)cc3OC)n1)CCOC(=O)N2C test_value="232 to 234 °C"
compound=NC(=O)CN1C(=O)COc2cc(F)c([N+](=O)[O-])cc21 test_value="220 to 226 °C"

----------
Recorded measurements of melting point, one per entry
measurement.type: melting point

compound=C[C@@]1(F)[C@H](OC(=O)c2ccccc2)[C@@H](COC(=O)c2ccccc2)O[C@@H]1Br test_value="59 to 61 °C"
compound=CCCc1c(OCCCCc2nnn[nH]2)ccc(C(C)=O)c1O test_value="114 to 115 °C"
compound="N#Cc1ccccc1C#CC1(C(F)(F)F)OC(=O)Nc2ccc(Cl)cc21 (racemic)" test_value="245 to 246 °C"
compound=CCOC(=O)c1cc(Oc2ccc3c(C(=O)O)cccc3c2)ncn1 test_value="211 to 212 °C"
compound=COc1nc(C)c(C)nc1N(C)C(=O)N1CCN(c2cc(F)cc(F)c2)CC1 test_value="104 to 106 °C"
compound=COC(=O)c1ccc(CN(OC)C(=O)C=C(O)C(=O)O)cc1 test_value="123 to 125 °C"
compound="CCOC(=O)C(C)Oc1ccc(C)cc1 (stereo not given)" test_value="78 to 82 °C"
compound=CCCc1c(SCCCOc2ccc3c(=O)cc(CCC(=O)O)oc3c2CCC)ccc(C(C)=O)c1N test_value="153 to 155 °C"
compound=COc1ccc(-c2cc(=Nc3c(C)cc(C)cc3C)n(C)c(C)n2)cc1OC test_value="163 to 168 °C"
compound=N=C(N)c1ccc(NC(=O)N(c2cccc(C(=N)N)c2)C2CCCCCC2)cc1 test_value="204 to 206 °C"
compound="O=C(c1cccnc1)N1CC2COc3ccc(Cl)cc3C2=N1 (stereo not given)" test_value="165 to 166 °C"
compound="CCc1cn(C2CC(O)C(CNC(=O)C(C)S(=O)c3ccc(Cl)cc3Cl)O2)c(=O)[nH]c1=O (mixture of isomers)" test_value="208 to 209 °C"
compound=CC(C)(C)c1cc(C=C(C#N)C#N)cc(I)c1O test_value="188 °C"
compound=COc1ccc(-c2ccc(C(C)=O)cc2)cc1OC1CCCC1 test_value="117 to 118 °C"
compound="O[C@@H]1CN=C(c2cccs2)O[C@H]1c1ccccc1 (racemic)" test_value="158 °C"
compound=CC(C)(C)c1ccc(NC(=O)c2ccc(C3(C)OCCCO3)cc2)cc1 test_value="148 to 149 °C"
compound=CCOC(=O)c1cnc2c(c(C)nn2-c2ccccn2)c1N test_value="147 to 149 °C"
compound="CCCCNC(=O)C(O[Si](C)(C)C(C)(C)C)c1ccccc1Br (stereo not given)" test_value="38 to 39 °C"
compound="O=C1CCC2C=C(c3cccnc3)C(F)=CC2N1 (stereo not given)" test_value="228 °C"
compound="O=C(N[C@H](Cc1ccc(C(F)(F)F)cc1)[C@@H](O)c1ccc(Oc2ccccc2)cc1)c1cccc2c1C=CCCC2 (racemic)" test_value="191 to 192 °C"

----------
Recorded measurements of melting point, one per entry
measurement.type: melting point

compound=Cc1cc2c(c(C)c1NCc1ccccc1)CC(C)(C)O2 test_value="80 to 81 °C"
compound=O=C(O)c1cn(C2CC2)c2cc(Cl)ccc2c1=O test_value="307 to 308 °C"
compound="NS(=O)(=O)c1ccc(CCN2C(=O)c3ccccc3C2c2ccccc2)cc1 (stereo not given)" test_value="218 °C"
compound="COC(=O)C1=C(CC(=O)N2CCN(C)CC2)NC(CS(=O)c2ccccc2Cl)=C(C(=O)OC)C1c1c(Cl)cccc1Cl (stereo not given)" test_value="180 to 181 °C"
compound=O=S(=O)(Cc1nc2ccc(Cl)cc2[nH]1)c1ccccn1 test_value="183 to 186 °C"
compound="C=C(C)c1ccc(C2=NC(=O)C(C)(C(=C)C)N2)nc1 (stereo not given)" test_value="123 to 125 °C"
compound=CC(=O)Nc1ccc(OC(=O)C=CC=C(C)C=CC=C(C)C=CC2=C(C)CCCC2(C)C)cc1 test_value="219 to 222 °C"
compound=COC(=O)c1cc(-c2ccccc2)sc1Nc1ccc(F)cc1[N+](=O)[O-] test_value="150 °C"
compound=CCCCCCCCCCCCSCCCN=C=O test_value="91 to 92 °C"
compound=CCOC(=O)C1(C(=O)Nc2ccc(F)cc2F)CC1 test_value="79 to 80.5 °C"

Source listed as a melting point compilation (Tetko et al.; mined from patent text by program, amines drawn as free bases though some values may be those of a salt).
